// provenance: ChEMBL document CHEMBL3988442

Each entry below lists one item and its recorded Percent Effect value.
# Test system: Ubiquitin-activating enzyme e1, putative (Leishmania donovani (strain BPK282A1)) (UniProt E9BSI1)
# Sequence (E9BSI1 as listed by the source): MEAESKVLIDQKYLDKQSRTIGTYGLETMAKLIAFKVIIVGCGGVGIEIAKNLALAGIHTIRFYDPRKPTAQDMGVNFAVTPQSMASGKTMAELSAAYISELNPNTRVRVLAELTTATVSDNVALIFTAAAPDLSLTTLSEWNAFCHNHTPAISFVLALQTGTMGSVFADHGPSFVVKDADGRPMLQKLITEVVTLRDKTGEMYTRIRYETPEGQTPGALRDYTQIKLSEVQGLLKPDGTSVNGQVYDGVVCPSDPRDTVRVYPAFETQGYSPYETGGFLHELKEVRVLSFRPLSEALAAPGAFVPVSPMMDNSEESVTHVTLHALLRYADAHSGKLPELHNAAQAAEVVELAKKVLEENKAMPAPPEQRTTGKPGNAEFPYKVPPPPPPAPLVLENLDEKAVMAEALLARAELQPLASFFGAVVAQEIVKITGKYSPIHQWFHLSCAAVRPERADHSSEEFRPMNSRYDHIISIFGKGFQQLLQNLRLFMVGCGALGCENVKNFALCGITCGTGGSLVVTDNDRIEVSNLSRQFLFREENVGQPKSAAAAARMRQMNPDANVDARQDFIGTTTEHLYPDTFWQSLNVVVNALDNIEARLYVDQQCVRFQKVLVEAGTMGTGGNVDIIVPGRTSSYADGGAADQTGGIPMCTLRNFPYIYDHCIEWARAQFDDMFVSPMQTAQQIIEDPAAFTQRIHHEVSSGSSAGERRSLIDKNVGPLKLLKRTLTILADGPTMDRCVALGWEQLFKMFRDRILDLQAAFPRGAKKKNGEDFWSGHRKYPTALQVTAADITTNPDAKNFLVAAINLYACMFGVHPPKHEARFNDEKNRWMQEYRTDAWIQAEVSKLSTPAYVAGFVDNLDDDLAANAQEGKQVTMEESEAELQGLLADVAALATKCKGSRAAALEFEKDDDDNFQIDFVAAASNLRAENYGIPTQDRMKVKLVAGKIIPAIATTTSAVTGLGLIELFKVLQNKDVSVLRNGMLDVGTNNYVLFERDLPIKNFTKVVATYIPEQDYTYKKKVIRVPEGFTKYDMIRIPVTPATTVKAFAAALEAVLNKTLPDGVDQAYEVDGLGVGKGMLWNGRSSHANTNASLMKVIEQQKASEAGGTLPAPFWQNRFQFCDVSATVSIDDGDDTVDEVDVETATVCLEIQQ
# Method summary: Leishmania donovani Ubiquitin Activating Enzyme (LdE1)
# Assay type: functional
# Set-up: scale not given: direction of the effect not stated beside the values
# Measurement setup: 30 µM
Entries with a potency or affinity are not part of this list.

Below, 2 compounds whose answers are already recorded.
Compound: O=C([C@H]1C[C@H]2OCC[C@H]2N(C(=O)C2CCOCC2)C1)N1CCCCO1
Percent Effect: 13.3%
//
Compound: CC(C)OCCCNC(=O)CN1CCC(N2CCN(C)C2=O)CC1
Percent Effect: -12.7%

Shifting focus to the compound that follows.
## Task Give me measured Percent Effect, please, for this compound: O=C(Nc1nc2c(s1)CN(S(=O)(=O)C1CC1)CC2)c1c(F)cccc1F
## Result 0%
